TEST SYSTEM: T1, Biotinylated NMDAR2B immunogen peptide (human, also: biotinylated, site not given here)
T1 construct: also called biotinylated peptide
T1 peptide: YKDAHEKDDF-NH2
MEASUREMENT DESCRIPTION: ELISA, Fab captured on anti-human IgG, streptavidin-HRP detection
Ends that are not written are not given here.
TEST READOUT: binding result

binder="Fab6 (Fab, V domains shown, also called Ab6 (IgG form with the same VH and VL)) VH: EVQLVESGGGLVQPGGSLRLSCAASGFNIYSSYIHWVRQAPGKGLEWVASISSSYGYTYYADSVKGRFTISADTSKNTAYLQMNSLRAEDTAVYYCARTVRGSKKPYFSGWAMDYWGQGTLVTVSS VL: DIQMTQSPSSLSASVGDRVTITCRASQSVSSAVAWYQQKPGKAPKLLIYSASSLYSGVPSRFSGSRSGTDFTLTISSLQPEDFATYYCQQGGSLITFGQGTKVEIK" reported_result="no binding"
binder="Fab10 (Fab, V domains shown, also called Ab10 (IgG form with the same VH and VL)) VH: EVQLVESGGGLVQPGGSLRLSCAASGFNLYSSYMHWVRQAPGKGLEWVASISSSYGYTYYADSVKGRFTISADTSKNTAYLQMNSLRAEDTAVYYCARTVRGSKKPYFSGWAMDYWGQGTLVTVSS VL: DIQMTQSPSSLSASVGDRVTITCRASQSVSSAVAWYQQKPGKAPKLLIYSASSLYSGVPSRFSGSRSGTDFTLTISSLQPEDFATYYCQQGSYLITFGQGTKVEIK" reported_result="no binding"
binder="Fab7 (Fab, V domains shown, also called Ab7 (IgG form with the same VH and VL)) VH: EVQLVESGGGLVQPGGSLRLSCAASGFNFSSSSIHWVRQAPGKGLEWVASISSSYGYTYYADSVKGRFTISADTSKNTAYLQMNSLRAEDTAVYYCARTVRGSKKPYFSGWAMDYWGQGTLVTVSS VL: DIQMTQSPSSLSASVGDRVTITCRASQSVSSAVAWYQQKPGKAPKLLIYSASSLYSGVPSRFSGSRSGTDFTLTISSLQPEDFATYYCQQGSHLITFGQGTKVEIK" reported_result="no binding"
binder="Fab4 (Fab, V domains shown, also called Ab4 (IgG form with the same VH and VL)) VH: EVQLVESGGGLVQPGGSLRLSCAASGFNLYYYSIHWVRQAPGKGLEWVAYISSYYGYTYYADSVKGRFTISADTSKNTAYLQMNSLRAEDTAVYYCARYYPGGWHAFDYWGQGTLVTVSS VL: DIQMTQSPSSLSASVGDRVTITCRASQSVSSAVAWYQQKPGKAPKLLIYSASSLYSGVPSRFSGSRSGTDFTLTISSLQPEDFATYYCQQYYGYGYPITFGQGTKVEIK" reported_result="no binding"
